Biological target: PA4913 (Pseudomonas aeruginosa, UniProt Q9HUQ0)
Sequence (Q9HUQ0 28-374): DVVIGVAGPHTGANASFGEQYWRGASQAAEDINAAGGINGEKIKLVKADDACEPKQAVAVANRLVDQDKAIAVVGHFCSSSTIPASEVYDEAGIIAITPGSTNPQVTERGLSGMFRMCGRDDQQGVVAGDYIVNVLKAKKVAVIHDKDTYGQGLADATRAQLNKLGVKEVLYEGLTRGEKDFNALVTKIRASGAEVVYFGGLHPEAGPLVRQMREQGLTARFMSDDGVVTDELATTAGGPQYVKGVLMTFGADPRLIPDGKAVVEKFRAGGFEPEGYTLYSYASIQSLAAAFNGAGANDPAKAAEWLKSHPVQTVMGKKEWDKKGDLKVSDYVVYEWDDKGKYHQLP
Assay: DSF thermal shift ligand screening, PA4913
Format: binding, Pseudomonas aeruginosa PAO1
Conditions: Tm change vs ligand-free protein
PROPERTY: Tm DSF (Tm increase)
Could you kindly put the unit after your number?

Form field: reported Tm DSF (Tm increase) of CCC(N)C(=O)O (stereo not drawn) [α-aminobutyrate]
8.1 °C

Form field: reported Tm DSF (Tm increase) of C[C@@H](N)C(=O)O
6.8 °C

Form field: reported Tm DSF (Tm increase) of CC(C)[C@H](N)C(=O)O
4.1 °C

Form field: reported Tm DSF (Tm increase) of C[C@H](N)C(=O)O
12.7 °C

---

System: Pseudomonas aeruginosa PAO1
Type: cell-based
Conditions: chemoeffector 1 mM, except molybdate 0.1 mM

RECORD SMILES: C[N+](C)(C)C[C@H](O)CC(=O)[O-]
SYSTEM TESTED: Pseudomonas aeruginosa PAO1
Chemotaxis response in words: very strong taxis

RECORD SMILES: C[N+](C)(C)CC(=O)O
SYSTEM TESTED: Pseudomonas aeruginosa PAO1
Chemotaxis response in words: very strong taxis

RECORD SMILES: C[C@@H](N)C(=O)O
SYSTEM TESTED: Pseudomonas aeruginosa PAO1
Chemotaxis response in words: very strong taxis

---

Target: PA1493 (cysP) (Pseudomonas aeruginosa, UniProt Q9I3L9)
Sequence (Q9I3L9 23-332): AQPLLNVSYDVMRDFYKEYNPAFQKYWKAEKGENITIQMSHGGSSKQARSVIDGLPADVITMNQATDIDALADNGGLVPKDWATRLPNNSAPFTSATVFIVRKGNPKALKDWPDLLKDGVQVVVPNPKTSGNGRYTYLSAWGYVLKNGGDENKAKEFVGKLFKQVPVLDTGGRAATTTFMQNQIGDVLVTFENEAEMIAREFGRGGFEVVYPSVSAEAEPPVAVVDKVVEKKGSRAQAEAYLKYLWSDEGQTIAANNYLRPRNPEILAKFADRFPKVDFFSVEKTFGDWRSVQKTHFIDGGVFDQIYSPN
Assay: biochemical
PROPERTY: pKd
Entry type: numeric. Quantity: pKd, the -log10 of concentration in molar units.

Form field: reported pKd of O=S(O)(O)=S [Thiosulphate]
6.54

---

Biological target: PA1863 (modA) (Pseudomonas aeruginosa)
Sequence (Q9I2N2 24-251): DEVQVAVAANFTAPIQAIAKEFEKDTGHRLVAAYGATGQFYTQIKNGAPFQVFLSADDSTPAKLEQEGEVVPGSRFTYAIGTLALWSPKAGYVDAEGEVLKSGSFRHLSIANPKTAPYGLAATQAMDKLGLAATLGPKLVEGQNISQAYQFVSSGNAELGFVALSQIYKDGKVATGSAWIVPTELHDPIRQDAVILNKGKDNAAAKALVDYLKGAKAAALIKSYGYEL
Assay: biochemical
Type: binding, Pseudomonas aeruginosa PAO1
Conditions: KD by ITC, PA1863 (modA); 25 °C
PROPERTY: pKd
Entry type: numeric. Quantity: pKd, the -log10 of concentration in molar units.

Provide the documented pKd with PA1863 (modA) (Pseudomonas aeruginosa) as the system for [O]=[Mo](=[O])([O-])[O-] [Molybdate]
8.00

---

Assign Tm DSF (Tm increase) to each entry below.
Target: PA4497 (dppA2) (Pseudomonas aeruginosa, UniProt Q9HVS4)
Sequence (Q9HVS4 25-532): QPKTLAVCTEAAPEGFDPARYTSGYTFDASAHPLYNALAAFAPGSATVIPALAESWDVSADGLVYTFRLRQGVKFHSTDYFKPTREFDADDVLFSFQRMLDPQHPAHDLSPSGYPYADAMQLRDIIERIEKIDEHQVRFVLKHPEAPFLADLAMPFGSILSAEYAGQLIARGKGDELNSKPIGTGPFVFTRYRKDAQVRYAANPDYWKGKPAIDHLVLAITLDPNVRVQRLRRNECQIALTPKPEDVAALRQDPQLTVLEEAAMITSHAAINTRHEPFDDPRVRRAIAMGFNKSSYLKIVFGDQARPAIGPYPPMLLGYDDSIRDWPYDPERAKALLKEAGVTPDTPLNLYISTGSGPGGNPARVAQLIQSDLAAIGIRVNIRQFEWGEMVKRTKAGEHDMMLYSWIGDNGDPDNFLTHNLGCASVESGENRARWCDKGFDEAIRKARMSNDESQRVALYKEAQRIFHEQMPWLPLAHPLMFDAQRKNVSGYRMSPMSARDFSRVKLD
Format: binding
Settings: arrays PM3B, PM6, PM7, PM8
Where a SMILES comes first, the peptide text is derived from it.
Please respond with the number in °C and leave the unit unwritten.

Provide the documented Tm DSF (Tm increase) with PA4497 (dppA2) (Pseudomonas aeruginosa, UniProt Q9HVS4) as the system for CC(C)C[C@H](N)C(=O)NCC(=O)NCC(=O)O [Leu-Gly-Gly] (H-Leu-Gly-Gly-OH)
3.2

Provide the documented Tm DSF (Tm increase) with PA4497 (dppA2) (Pseudomonas aeruginosa, UniProt Q9HVS4) as the system for CC(C)[C@H](N)C(=O)N[C@@H](Cc1ccc(O)cc1)C(=O)N[C@H](C(=O)O)C(C)C [Val-Tyr-Val] (H-Val-Tyr-Val-OH)
5.0

Provide the documented Tm DSF (Tm increase) with PA4497 (dppA2) (Pseudomonas aeruginosa, UniProt Q9HVS4) as the system for CC(C)CC(N)C(=O)NC(CC(C)C)C(=O)NC(CC(C)C)C(=O)O (stereo not drawn) [Leu-Leu-Leu] (H-Leu-Leu-Leu-OH; configuration not given here)
5.0

Provide the documented Tm DSF (Tm increase) with PA4497 (dppA2) (Pseudomonas aeruginosa, UniProt Q9HVS4) as the system for C[C@H](NC(=O)CNC(=O)CN)C(=O)O
7.6

Provide the documented Tm DSF (Tm increase) with PA4497 (dppA2) (Pseudomonas aeruginosa, UniProt Q9HVS4) as the system for CC[C@H](C)[C@H](NC(=O)CNC(=O)CN)C(=O)O [Gly-Gly-Ile] (H-Gly-Gly-Ile-OH)
5.1

Provide the documented Tm DSF (Tm increase) with PA4497 (dppA2) (Pseudomonas aeruginosa, UniProt Q9HVS4) as the system for NCC(=O)NC(Cc1ccccc1)C(=O)NC(Cc1ccccc1)C(=O)O (stereo not drawn) [Gly-Phe-Phe] (H-Gly-Phe-Phe-OH; configuration not given here)
6.6

Provide the documented Tm DSF (Tm increase) with PA4497 (dppA2) (Pseudomonas aeruginosa, UniProt Q9HVS4) as the system for NCC(=O)NCC(=O)N[C@@H](Cc1ccccc1)C(=O)O [Gly-Gly-Phe] (H-Gly-Gly-Phe-OH)
3.7

Provide the documented Tm DSF (Tm increase) with PA4497 (dppA2) (Pseudomonas aeruginosa, UniProt Q9HVS4) as the system for N[C@@H](Cc1ccccc1)C(=O)NCC(=O)NCC(=O)O [Phe-Gly-Gly] (H-Phe-Gly-Gly-OH)
8.3

Provide the documented Tm DSF (Tm increase) with PA4497 (dppA2) (Pseudomonas aeruginosa, UniProt Q9HVS4) as the system for NCC(=O)NCC(=O)NCC(=O)O [Gly-Gly-Gly] (H-Gly-Gly-Gly-OH)
4.4

Provide the documented Tm DSF (Tm increase) with PA4497 (dppA2) (Pseudomonas aeruginosa, UniProt Q9HVS4) as the system for C[C@H](N)C(=O)N[C@@H](C)C(=O)N[C@@H](C)C(=O)O
9.1

---

Assign pKd to each entry below.
Target: PA1074 (braC) (Pseudomonas aeruginosa, UniProt P21175)
Sequence (P21175 27-373): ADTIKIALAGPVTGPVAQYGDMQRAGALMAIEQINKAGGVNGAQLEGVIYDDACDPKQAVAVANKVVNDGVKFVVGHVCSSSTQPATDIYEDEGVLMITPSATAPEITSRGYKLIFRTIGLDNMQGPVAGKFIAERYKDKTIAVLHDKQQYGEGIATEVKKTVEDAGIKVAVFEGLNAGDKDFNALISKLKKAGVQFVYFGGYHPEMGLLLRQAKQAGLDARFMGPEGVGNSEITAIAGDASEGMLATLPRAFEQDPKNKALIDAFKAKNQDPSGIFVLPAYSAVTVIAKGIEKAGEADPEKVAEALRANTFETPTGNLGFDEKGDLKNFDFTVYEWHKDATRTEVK
Assay: biochemical
Entry type: numeric. Quantity: pKd, the -log10 of concentration in molar units.

Form field: reported pKd of N[C@@H](CCO)C(=O)O
6.14

Form field: reported pKd of CC(C)[C@H](N)C(=O)O
7.15

Form field: reported pKd of CC[C@H](C)[C@H](N)C(=O)O
6.55

Form field: reported pKd of CC(C)C[C@H](N)C(=O)O
6.54

Form field: reported pKd of C[C@H](N)C(=O)O
6.68

---

Molecular target: PA4500 (dppA3) (Pseudomonas aeruginosa)
Sequence (Q9HVS1 25-533): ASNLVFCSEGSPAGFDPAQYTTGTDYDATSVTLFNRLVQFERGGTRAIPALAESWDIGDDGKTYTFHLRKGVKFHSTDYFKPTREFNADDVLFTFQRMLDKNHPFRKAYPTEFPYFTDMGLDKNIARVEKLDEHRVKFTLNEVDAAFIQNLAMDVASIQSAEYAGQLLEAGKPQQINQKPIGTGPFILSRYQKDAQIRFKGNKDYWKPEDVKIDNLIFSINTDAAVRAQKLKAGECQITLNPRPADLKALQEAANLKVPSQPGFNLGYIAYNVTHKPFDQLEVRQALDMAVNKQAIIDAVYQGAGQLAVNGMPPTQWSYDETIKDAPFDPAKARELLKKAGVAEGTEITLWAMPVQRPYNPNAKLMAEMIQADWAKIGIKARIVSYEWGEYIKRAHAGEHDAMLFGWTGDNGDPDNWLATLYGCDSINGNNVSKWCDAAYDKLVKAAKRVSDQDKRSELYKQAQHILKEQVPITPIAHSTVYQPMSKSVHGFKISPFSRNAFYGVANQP
Assay: Isothermal titration calorimetry, PA4500
Assay type: binding, Pseudomonas aeruginosa PAO1
Conditions: 25 °C, read-out: KD by ITC (converted)
Where a SMILES comes first, the peptide text is derived from it.
Threshold 6 µM. Kd below it: 1. Kd at it or above: -1.

Just wondering, is Kd of CC(C)[C@H](NC(=O)CN)C(=O)O [Gly-Val] (H-Gly-Val-OH) below 6 µM?
-1

Just wondering, is Kd of C[C@H](N)C(=O)N[C@@H](C)C(=O)O [Ala-Ala] (H-Ala-Ala-OH) below 6 µM?
1

Just wondering, is Kd of C[C@H](N)C(=O)N[C@H](C(=O)O)[C@@H](C)O [Ala-Thr] (H-Ala-Thr-OH; N-terminus and C-terminus assumed) below 6 µM?
1

Just wondering, is Kd of C[C@H](N)C(=O)N[C@@H](Cc1c[nH]cn1)C(=O)O [Ala-His] (H-Ala-His-OH; N-terminus and C-terminus assumed) below 6 µM?
-1

---

Assign Tm DSF (Tm increase) to each entry below.
Molecular target: PA4500 (dppA3) (Pseudomonas aeruginosa)
Experiment: DSF thermal shift ligand screening, PA4500
Assay type: binding, Pseudomonas aeruginosa PAO1
Conditions: arrays PM3B, PM6, PM7, PM8
Where a SMILES comes first, the peptide text is derived from it.
Please respond with the number in °C and leave the unit unwritten.

Form field: reported Tm DSF (Tm increase) of CC(C)[C@H](NC(=O)CN)C(=O)O [Gly-Val] (H-Gly-Val-OH)
2.0

Form field: reported Tm DSF (Tm increase) of C[C@H](N)C(=O)N[C@H](C(=O)O)[C@@H](C)O [Ala-Thr] (H-Ala-Thr-OH; N-terminus and C-terminus assumed)
7

Form field: reported Tm DSF (Tm increase) of C[C@H](N)C(=O)N[C@@H](Cc1ccccc1)C(=O)O
2.0

Form field: reported Tm DSF (Tm increase) of C[C@H](N)C(=O)N[C@@H](Cc1c[nH]cn1)C(=O)O [Ala-His] (H-Ala-His-OH; N-terminus and C-terminus assumed)
3.0
